# TARGET DESC: CDC7/DBF4 (Cell division cycle 7-related protein kinase/Activator of S phase kinase) (Homo sapiens)
# TEST: Inhibition of recombinant human Cdc7 (1 to 574 residues)/human N-terminal GST-tagged ASK (1 to 674 residues) expressed in baculovirus expression system using FITC-labeled MCM2 peptide as substrate measured after 5 hrs in presence of 5 uM ATP
pIC50: −log10 of the molar value.
# cutoff 7 applies to pIC50; >= gives fulfilled, < gives not fulfilled

Worked examples follow.
{"SMILES INPUT": "O=C(O)C1=C(Nc2ccccc2)O/C(=C\\c2c[nH]c3ncccc23)C1=O", "CATEGORY": "fulfilled"}
{"SMILES INPUT": "NC(=O)C1=C(Nc2ccccc2)O/C(=C\\c2c[nH]c3ncccc23)C1=O", "CATEGORY": "not fulfilled"}

Consider the additional compound presented here.
I'd appreciate it if you could say whether `CCOC(=O)C1=C(Nc2ccc(OC)cc2)O/C(=C\c2c[nH]c3ncccc23)C1=O` has pIC50 at least equal to 7.
fulfilled

###

# TARGET DESC: CDC7/DBF4 (Cell division cycle 7-related protein kinase/Activator of S phase kinase) (Homo sapiens, UniProt O00311)
# TEST: Inhibition of recombinant human Cdc7 (1 to 574 residues)/human N-terminal GST-tagged ASK (1 to 674 residues) expressed in baculovirus expression system using FITC-labeled MCM2 peptide as substrate measured after 5 hrs in presence of 5 uM ATP
REPORTED ENDPOINT: pIC50
Entry type: numeric. Quantity: pIC50, the -log10 of concentration in molar units.

The examples below pair each entry with its known result.
{"SMILES INPUT": "CCOC(=O)C1=C(Nc2ccccc2)O/C(=C\\c2ccc3c(c2)OCO3)C1=O", "REPORTED ENDPOINT": "pIC50", "RESULT VALUE": 5.49}
{"SMILES INPUT": "CCOC(=O)C1=C(Nc2ccc(F)cc2)O/C(=C\\c2c[nH]c3ncccc23)C1=O", "REPORTED ENDPOINT": "pIC50", "RESULT VALUE": 8.37}
{"SMILES INPUT": "CCOC(=O)C1=C(Nc2ccccc2)O/C(=C\\c2ccc(O)c(C)c2)C1=O", "REPORTED ENDPOINT": "pIC50", "RESULT VALUE": 5.92}
{"SMILES INPUT": "O=C1C(C(=O)N2CCCCC2)=C(Nc2ccccc2)O/C1=C\\c1c[nH]c2ncccc12", "REPORTED ENDPOINT": "pIC50", "RESULT VALUE": 6.05}
{"SMILES INPUT": "CCOC(=O)C1=C(Nc2ccccc2)O/C(=C\\c2c[nH]c3ncc(Cl)cc23)C1=O", "REPORTED ENDPOINT": "pIC50", "RESULT VALUE": 7.36}

// next entry
Can you share its pIC50? I mean this compound: `CCNC(=O)C1=C(Nc2ccccc2)O/C(=C\c2c[nH]c3ncccc23)C1=O`
5.80
